Below: a set of entries, each annotated with reported GI50.
tested on: SF-539; experiment: NCI tumour cell line growth inhibition, 48 h
The source made the active and inactive calls. Rule as the data show it: active = GI50 up to about 1.1 µM and inactive = higher.

Nc1nc(Cl)cc(NCCCCCCCCCCCCNc2cc(Cl)nc(N)n2)n1
15.2 µM (inactive)
CC(C)c1cc(C(F)(F)F)nc(NNc2nc(C(C)C)cc(C(F)(F)F)n2)n1
90.8 µM (inactive)
C#Cc1c(C)c(/C=C/C(C)=C\C(=O)OC)n(C)c1C
67.5 µM (inactive)
CC1(C)CC(=O)C2=C(C1)N(c1ccccc1)C1(O)C=CC(O)=C3C(=O)c4ccccc4C(=O)C321 (stereo not given)
27.4 µM (inactive)
Cc1ccc(S(=O)(=O)N/N=C/c2c(O)ccc3ccccc23)cc1
16.1 µM (inactive)
C#CCn1c(=O)c(C)cn(/C(=C\C(=O)OCC)C(=O)OCC)c1=O
1.28 µM (inactive)
CNC1C(O)C(OC2C(N)CC(N)C(OC3OC(CN)=CCC3N)C2O)OCC1(C)O (stereo not given)
> 100 µM (inactive)
CC(C)=CCN1c2ccccc2[C@@]2(CC=C(C)C)CCN(C)[C@@H]12 [(+)-DEBROMOFLUSTRAMINE B]
24.3 µM (inactive)

Give the reported GI50 for this compound. Cc1sc2nc(N(C)C)oc(=O)c2c1C
> 100 µM (inactive)

Give the reported GI50 for this compound. C=C1C(=O)C23CC1C[C@H](OC(C)=O)[C@H]2C1(C)C(OC(C)=O)C[C@H](O)C(C)(C)[C@H]1C(=O)[C@@H]3OC(C)=O (stereo not given in full)
2.69 µM (inactive)
